selectivity ratio reference
Test: Therapeutic index, ratio of IC50 for human MCF10A cells to IC50 for human MDA-MB-231 cells expressing high level of p53
Type: cell-based
Details: MCF10A cells versus MDA-MB-231 cells (high level of p53), read-out: Ratio IC50
metric_name: selectivity ratio

[[record]]
molecule = "O=[N+]([O-])c1ccccc1S(=O)(=O)N1CC(n2cnc3c(I)nc(Cl)nc32)OCc2ccccc21 (racemic)"
metric_name = "selectivity ratio"
measured_value = 1.37

[[record]]
molecule = "O=[N+]([O-])c1ccccc1S(=O)(=O)N1CC(n2cnc3c(Cl)nc(Cl)nc32)OCc2ccccc21 (racemic)"
metric_name = "selectivity ratio"
measured_value = 5.5

[[record]]
molecule = "O=[N+]([O-])c1ccccc1S(=O)(=O)N1CC(n2cnc3nc(Cl)nc(Cl)c32)OCc2ccccc21 (racemic)"
metric_name = "selectivity ratio"
measured_value = 4

[[record]]
molecule = "O=S(=O)(c1ccccc1NO)N1CC(n2cnc3c(Cl)nc(Cl)nc32)OCc2ccccc21 (racemic)"
metric_name = "selectivity ratio"
measured_value = 2.53

[[record]]
molecule = "O=[N+]([O-])c1ccc(S(=O)(=O)N2CC(n3cnc4c(Cl)nc(Cl)nc43)OCc3ccccc32)cc1 (racemic)"
metric_name = "selectivity ratio"
measured_value = 11

[[record]]
molecule = "COC(CN(c1ccccc1CO)S(=O)(=O)c1ccc([N+](=O)[O-])cc1)n1cnc2c(Cl)nc(Cl)nc21 (racemic)"
metric_name = "selectivity ratio"
measured_value = 4.55

[[record]]
molecule = "Nc1ccccc1S(=O)(=O)N1CC(n2cnc3c(Cl)nc(Cl)nc32)OCc2ccccc21 (racemic)"
metric_name = "selectivity ratio"
measured_value = 3.25


###

Activity reference
System: MCF7
Assay: Induction of apoptosis in human MCF7 cells assessed as necrotic cells at IC50 concentration after 48 hrs using V-FITC and propidium iodide staining by flow cytometry (reference value: 12.61 +/- 7.50 %)
Type: functional
metric_name: Activity (%)

[[record]]
compound = "O=[N+]([O-])c1ccccc1S(=O)(=O)N1CC(n2cnc3c(Br)ncnc32)OCc2ccccc21 (racemic)"
measured_value = 3.76

[[record]]
compound = "c1ccc(Sc2nc(Sc3ccccc3)c3ncn(C4CNc5ccccc5CO4)c3n2)cc1 (racemic)"
measured_value = 4.98

[[record]]
compound = "O=[N+]([O-])c1ccccc1S(=O)(=O)N1CC(n2cnc3nc(Cl)nc(Cl)c32)OCc2ccccc21 (racemic)"
measured_value = 2.48

